# TEST: Flavourist tasting of a 0.5% NaCl / 0.03% MSG solution, umami intensity versus reference solution A (Example 2)
# Type: in vivo
# EXPERIMENTAL PARAMETERS: 10 ppm compound in 0.5% NaCl and 0.03% MSG; average rating of 4 flavourists versus solution A; scale -3 (much lower than base) to 3 (much higher), 0 = same as base
# Experimental: Two solutions were prepared: • A a solution of 0.5% NaCl and 0.03% MSG • B a solution of 0.5% NaCl and 0.03% MSG and 10 ppm Example 1 compound The samples were tasted by a small group of flavourists (2 male, 2 female, aged between 30 and 60). The intensity of the umami and salt taste of solution B was compared with that of the reference (solution A) and rated according to the following intensity scale: The results (average of ratings given by the flavourists) were: […]

{"MOLECULE": "N[C@]1(C(=O)O)CC[C@H](C(=O)O)C1 (racemic)", "Intensity Taste Umami": 0.00}
{"MOLECULE": "NC(C(=O)O)C1CC1C(=O)O (stereo not shown)", "Intensity Taste Umami": 1.00}
{"MOLECULE": "N[C@@]1(C(=O)O)CC[C@H](C(=O)O)C1 (racemic)", "Intensity Taste Umami": 0.00}
{"MOLECULE": "CCOC(=O)C(N)C1CC1C(=O)OC.Cl (stereo not shown)", "Intensity Taste Umami": 1.00}
